# study target: UniProt:Q9NP59
# Sequence (Q9NP59 1-571): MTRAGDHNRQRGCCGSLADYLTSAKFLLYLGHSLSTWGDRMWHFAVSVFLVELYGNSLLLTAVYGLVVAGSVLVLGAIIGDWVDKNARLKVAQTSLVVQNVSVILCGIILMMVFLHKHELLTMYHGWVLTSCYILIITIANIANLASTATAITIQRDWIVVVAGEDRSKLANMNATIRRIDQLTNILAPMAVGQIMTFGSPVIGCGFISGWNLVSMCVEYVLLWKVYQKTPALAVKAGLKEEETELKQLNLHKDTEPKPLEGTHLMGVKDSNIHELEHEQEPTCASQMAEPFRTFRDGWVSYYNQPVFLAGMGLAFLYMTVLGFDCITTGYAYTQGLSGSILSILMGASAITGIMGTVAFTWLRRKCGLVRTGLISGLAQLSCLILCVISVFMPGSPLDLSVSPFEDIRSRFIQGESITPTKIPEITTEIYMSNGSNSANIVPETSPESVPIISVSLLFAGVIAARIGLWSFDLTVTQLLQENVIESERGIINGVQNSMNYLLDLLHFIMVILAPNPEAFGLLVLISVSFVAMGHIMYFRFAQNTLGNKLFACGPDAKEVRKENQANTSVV
# test method notes: T47D cell-based ferroportin internalization assay in presence of mouse serum albumin (MSA)
# Parameters: a human breast carcinoma adherent cell line which endogenously expresses ferroportin; host or cells: T47D
# cond: Table 6E; T47D internalization assay with MSA
pIC50: −log10 of the molar value. Positions of bridges follow the written chain, without caps; N, C: chain ends. Non-standard residues stand in square brackets, D forms with d. Residues, ends and D or L forms follow the SMILES beside them. Groups on a side chain read outwards from the residue. *: point of attachment. X1 = C[N+](C)(CCNC(=O)CCCCCCCCCCCCCCCCC(=O)O)CC(=O)*; Dip = N[C@H](C(=O)O)C(c1ccccc1)c1ccccc1; Palmitoyl = CCCCCCCCCCCCCCCC(=O)*; NMeT = CN[C@H](C(=O)O)[C@@H](C)O; NMeK = CN[C@@H](CCCCN)C(=O)O; Isovaleryl = CC(C)CC(=O)*; Ahx = NCCCCCC(=O)O
property label: pIC50

compound: COC(=O)CC[C@H](NC(=O)CC(C)C)C(=O)N(C)[C@H](C(=O)N[C@@H](Cc1c[nH]cn1)C(=O)N[C@H](C(=O)N1CCC[C@H]1C(=O)N[C@H]1CSSC[C@@H](C(=O)N(C)[C@@H](CCCCNC(=O)CCCCCNC(=O)C[N+](C)(C)CCNC(=O)CCCCCCCCCCCCCCCCC(=O)O)C(=O)N[C@H](C(=O)N(C)[C@@H](CCCCN)C(N)=O)C(c2ccccc2)c2ccccc2)NC1=O)C(c1ccccc1)c1ccccc1)[C@@H](C)O [compound 153] (Isovaleryl-E(OMe)[NMeT]H[Dip]PCC[NMeK]([Ahx-X1])[Dip][NMeK]-NH2; disulfide 6-7)
property label: pIC50
assay value: 6.30 to 7.00

Consider now this further compound.
Query string: Name the recorded pIC50 of the compound listed here: CCCCCCCCCCCCCCCC(=O)NCCCCCC(=O)NCCCC[C@@H](C(=O)N[C@H](C(=O)N[C@H](CCCCN)C(N)=O)C(c1ccccc1)c1ccccc1)N(C)C(=O)[C@@H]1CSSC[C@H](NC(=O)[C@@H]2CCCN2C(=O)[C@@H](NC(=O)[C@H](Cc2cnc[nH]2)NC(=O)[C@@H](NC(=O)[C@H](CCC(=O)O)NC(=O)CC(C)C)[C@@H](C)O)C(c2ccccc2)c2ccccc2)C(=O)N1 [compound 196] (Isovaleryl-ETH[Dip]PCC[NMeK]([Ahx-Palmitoyl])[Dip][dK]-NH2; disulfide 6-7)
Result string: 8.00 to 9.00
